- Test system: UACC-257
- protocol-text: NCI tumour cell line growth inhibition, 48 h
Activity calls are given as the source filed them. Rule as the data show it: active = GI50 up to about 1.1 µM and inactive = higher.
property-label: GI50

• c1ccc(/N=c2/sc3ccccc3s/c2=N/c2ccccc2)cc1 = 3.72 µM (inactive)
• O=P1(N2CCOCC2)OCCO1 = > 100 µM (inactive)
• O=Cc1cc(C(=O)OCc2ccccc2)n(S(=O)(=O)c2ccccc2)c1 = 24.7 µM (inactive)
• CN(Cc1cnc2nc(N)nc(N)c2n1)c1ccc(C(=O)NC2CCCCC2)cc1 = 21.3 µM (inactive)
• CCOC(=O)CC1Nc2ccccc2C12CCc1c([nH]c3ccccc13)C2C(=O)OCC (stereo unspecified) = 38 µM (inactive)
• Nc1[nH]c(=S)[nH]c(=O)c1/N=N/c1c(Br)cc(S(N)(=O)=O)cc1Br = > 100 µM (inactive)

----------
- Tested on: Malme-3M
- protocol-text: NCI tumour cell line growth inhibition, 48 h
Activity calls are given as the source filed them. Rule as the data show it: active = GI50 up to about 1.1 µM and inactive = higher.
property-label: GI50

• CC(C)Cn1cnc2c(SCc3ccc(Cl)cc3Cl)nc(N)nc21 = 26.4 µM (inactive)
• CNC(=O)OCc1nc(SSC(C)(C)C)n(C)c1COC(=O)NC = 1.86 µM (inactive)
• O=C(CN1C(=O)c2ccccc2C1=O)NC1(C(=O)O)CCCC1 = > 100 µM (inactive)
• CN(C)CCNC(=O)c1ccc2nc3c(nc2c1)C(=O)c1ccccc1-3 = 25.2 µM (inactive)
• NCCCN(CCCN)CCc1cn(C(=O)c2ccccc2)cn1 = 14.7 µM (inactive)
• CC(=O)OC1[C@H](OC(C)=O)C2=C(C)[C@@H](OC(C)=O)C[C@@]2(C(C)(C)O)[C@@H](OC(C)=O)[C@H]2[C@@]1(C)[C@@H](OC(C)=O)CC(OC(C)=O)[C@]21CO1 (stereo not given in full) = > 100 µM (inactive)
• CCNc1ccc2c(c1)Cc1ccccc1-2 = 67.9 µM (inactive)
• C=C1C(=O)OC2C/C(C)=C/CC/C(C)=C/CCC3(COC(C)=O)OC3CC12 (stereo not given) = 12.9 µM (inactive)
• CCOP(=O)(OCC)OC1CC(n2cnc3c(N(CC)CC)ncnc32)OC1CO[Si](C)(C)C(C)(C)C (stereo not given) = 22.4 µM (inactive)
• O=C(O)c1ccccc1C(=O)c1ccco1 = > 100 µM (inactive)

----------
Reported values of GI50 for individual entries
- System: LOX IMVI
- protocol-text: NCI tumour cell line growth inhibition, 48 h
Counter-ions that a name gives are not always drawn. Activity calls are given as the source filed them. Cut-off read from the data, not from the text of the source: active = GI50 up to about 1.1 µM and inactive = higher.
property-label: GI50

- COc1ccc2nc3cc([N+](=O)[O-])ccc3c(NNc3ccc([N+](=O)[O-])cc3)c2c1: 61.1 µM (inactive)
- Cc1nnc(N)nc1/C=C/c1c(O)ccc2ccccc12: 34.3 µM (inactive)
- CCCc1cc(O)c2c(C)c3[nH]c4ccc(Cl)cc4c3c(C)c2n1: 1.82 µM (inactive)
- O=[N+]([O-])c1cccc(/C=N/NC2=CS(=O)(=O)C=C2)c1: > 100 µM (inactive)
- CN(C)CCNC(=O)c1ccc2nc3c(nc2c1)C(=O)c1ccccc1-3: 29.9 µM (inactive)
- Cc1nnc2sc(NN)nn12: > 100 µM (inactive)
- CN(CCCCCl)P(=O)(OCC1=CC(=O)c2ccccc2C1=O)OC[C@H]1O[C@@H](n2cc(F)c(=O)[nH]c2=O)C[C@@H]1O (some centres not stated): < 0.01 µM (active)
- O=C(NCCCCCCCCCCCCNC(=O)c1cccc2ccccc12)c1cccc2ccccc12: > 84.9 µM (inactive)
- COc1cc(CCCl)c(CC2=NCCc3cc(OC)c(OC)cc32)cc1OC: 21.1 µM (inactive)
- CC1(C)CC2CC(CC(C)(C)C2=O)C1=O: > 100 µM (inactive)
- Cc1cc2c(=O)cc(-c3cccs3)oc2c(C(=O)O)c1C: > 100 µM (inactive)
- COc1cc(/C=C2\NC(=O)C(Cc3cc(OC)c(OC)c(C)c3OC)N(C(C)=O)C2=O)c(OC)c(C)c1OC (configuration not stated): > 100 µM (inactive)
- CCN(CC)CCN1C(=O)c2c(c(-c3ccccc3)c3ccccc3c2-c2ccccc2)C1=O: > 100 µM (inactive)
- O=C(CC1(O)C(=O)Nc2ccccc21)c1ccccc1O (configuration not stated): > 100 µM (inactive)
- CC(=O)NCCCCCCNC(C)=O [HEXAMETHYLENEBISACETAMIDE]: 4680 µM (inactive)
- CN(C)c1ccc([S+]([O-])Nc2ccccc2)cc1 (configuration not stated): 38.9 µM (inactive)
- O=c1[nH][nH]c(=O)n1Cc1cccc(Cn2c(=O)[nH][nH]c2=O)c1: > 100 µM (inactive)
- CNC(=O)OCC1=C(COC(=O)NC)C(C)N(c2ccccc2)C1 (configuration not stated): 32.7 µM (inactive)
- CC(=O)O[C@H]1C[C@]2(O)[C@@H]3CC[C@@H]4C[C@@H](O)CC[C@]4(C)[C@H]3CC[C@]2(C)[C@H]1C1=CC(=O)OC1: 0.0585 µM (active)
- O=[N+]([O-])/C(Cl)=C/C(=C1/Nc2ccccc2O1)[N+](=O)[O-]: 8.13 µM (inactive)
- COc1ccc2c(=O)c3ccoc3n(CC=C(C)C)c2c1 [ACROPHYLLINE]: 42.3 µM (inactive)
- N#CC1=C(S)N(C2OC(CO)C(O)C(O)C2O)C(c2ccccc2)=CC1c1cccs1 (configuration not stated): 18.7 µM (inactive)
- O=C(Nc1ccccc1C(=O)NC(=O)c1ccccc1NC(=O)c1ccccc1)c1ccccc1: 2.24 µM (inactive)
- Cc1cccc(C(C)(C)C)c1NC(=O)C(=O)Cc1nc2ccccc2s1: > 100 µM (inactive)
- COc1cc2c(oc(=O)c3c4occc4cc(OC)c23)c2cccc(O)c12: > 100 µM (inactive)
- O=C(O)c1cc2ccccc2c(O)c1O: 3.52 µM (inactive)
- CN(C)CCOC(c1ccccc1)c1ccccc1 [DIPHENHYDRAMINE HYDROCHLORIDE]: > 100 µM (inactive)
- O=C1N[C@H]2C(=O)c3c(Cl)sc(Cl)c3[C@H]2O1: 2.7 µM (inactive)
- N#Cc1c(N2CCN(c3ccc([N+](=O)[O-])cc3)CC2)[n+]([O-])c2ccc(Cl)cc2[n+]1[O-]: 0.459 µM (active)
- CC(=O)OC(C(=O)O)C(OC(C)=O)C(OC(C)=O)C(OC(C)=O)C(=O)O (configuration not stated): > 100 µM (inactive)
- NC1=NN(c2ccccc2)C2(O)c3ccncc3C3=NN(c4ccccc4)C(=O)C132 (configuration not stated): > 100 µM (inactive)
- COc1ccc(Nc2nn3c(=O)c4c(C)c(C)sc4nc3s2)cc1: 56.9 µM (inactive)
- O=[N+]([O-])c1ccc2nc3ccc([N+](=O)[O-])cn3c2c1: 85.1 µM (inactive)
- CC(=O)Nc1ccc2c(c1)/C(=C\c1ccc([N+](C)(C)C)cc1)c1ccccc1-2: 47.9 µM (inactive)
- COC1C=CC(O)C(CO)O1 (configuration not stated): > 100 µM (inactive)
- Cc1cc2c(=O)cc(-c3ccc(F)cc3)oc2c(C(=O)O)c1C: > 100 µM (inactive)
- C=C/C(C)=C/[C@H](C)C(=O)C[C@H](O)CC1CC(=O)NC(=O)C1: 43.1 µM (inactive)
- CC(C)CC(=O)NS(=O)(=O)c1ccccc1: > 100 µM (inactive)
- C/C(=N/NC(N)=S)c1ccc[nH]1: > 100 µM (inactive)
- C=C(C)[C@H]1CC(=O)/C(C)=C\CC/C(C)=C/CC[C@@]2(C)O[C@@H]2C1: 10.9 µM (inactive)
- Nc1ccc(-c2nc3ccccc3s2)cc1F: 44.7 µM (inactive)
- CN(C)c1n/c(=N/c2cccc(Cl)c2)ss1: 14.5 µM (inactive)

----------
- Tested on: LOX IMVI
- protocol-text: NCI tumour cell line growth inhibition, 48 h
Calls of active or inactive are those of the source. Cut-off read from the data, not from the text of the source: active = GI50 up to about 1.1 µM and inactive = higher.
property-label: GI50

* O=C(c1ccccc1)N1CCc2c([nH]c3ccccc23)C1 | 88.1 µM (inactive)
* c1cc2c(cc1[C@@H]1OC[C@@H]3[C@H]1CO[C@H]3c1ccc3c(c1)OCO3)OCO2 | 36.2 µM (inactive)
* COc1ccc(C2=C(Cl)C(=O)O/C2=C\c2ccc(OC)c(Br)c2)cc1Cl | 58.9 µM (inactive)
* Nc1ncc(N)c(NCC2(CO)CC(CCc3ccccc3)C2)n1 (configuration not stated) | 3.46 µM (inactive)
* CC1OC(OC2C(CO)OC(O[C@H]3CC[C@@]4(C)C(=CC[C@H]5[C@@H]6C[C@@H]7O[C@](O)(CC[C@H](C)COC8OC(CO)C(O)C(O)C8O)[C@@H](C)[C@@H]7[C@@]6(C)CC[C@@H]54)C3)C(OC3OC(C)C(O)C(O)C3O)C2O)C(O)C(O)C1O (some centres not stated) | 2.17 µM (inactive)
* CCCCOC(=O)NC(=O)c1cn(CCCOC(=O)CCCCCCCCC(=O)OCCCn2cc(C(=O)NC(=O)OCCCC)c(=O)[nH]c2=O)c(=O)[nH]c1=O | > 100 µM (inactive)
* COc1ccc(C)cc1-c1cc(Sc2ccccc2)c(-c2cc(C)ccc2OC)o1 | > 100 µM (inactive)
